systemTested: T1, CAPRIN-1 protein expressed on the membrane surface of human cancer cells (human, UniProt Q14444 2-709)
T1 sequence (looked up): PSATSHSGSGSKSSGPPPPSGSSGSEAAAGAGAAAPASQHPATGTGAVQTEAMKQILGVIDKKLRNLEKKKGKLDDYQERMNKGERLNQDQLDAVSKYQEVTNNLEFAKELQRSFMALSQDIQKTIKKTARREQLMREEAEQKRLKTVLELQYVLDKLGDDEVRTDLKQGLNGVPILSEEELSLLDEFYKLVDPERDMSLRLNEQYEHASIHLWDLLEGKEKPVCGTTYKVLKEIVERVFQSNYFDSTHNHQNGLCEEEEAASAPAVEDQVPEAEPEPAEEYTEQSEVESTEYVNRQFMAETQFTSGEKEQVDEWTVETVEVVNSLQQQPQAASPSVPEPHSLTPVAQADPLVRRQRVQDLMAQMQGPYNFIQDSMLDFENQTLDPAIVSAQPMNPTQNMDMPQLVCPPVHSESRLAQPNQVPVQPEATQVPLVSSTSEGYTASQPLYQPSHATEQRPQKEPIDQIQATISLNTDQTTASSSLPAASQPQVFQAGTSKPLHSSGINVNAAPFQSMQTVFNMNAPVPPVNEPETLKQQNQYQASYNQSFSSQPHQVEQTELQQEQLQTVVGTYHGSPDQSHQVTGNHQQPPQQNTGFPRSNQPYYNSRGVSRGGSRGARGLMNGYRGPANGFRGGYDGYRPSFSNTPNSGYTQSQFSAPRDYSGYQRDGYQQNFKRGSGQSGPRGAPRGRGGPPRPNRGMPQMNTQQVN
assayNotes: cell-based or functional assay
readoutType: ADCC cytotoxic activity (51Cr release) on NCI-N87

The binder listed as humanized antibody #6 (antibody, V domains shown) VH: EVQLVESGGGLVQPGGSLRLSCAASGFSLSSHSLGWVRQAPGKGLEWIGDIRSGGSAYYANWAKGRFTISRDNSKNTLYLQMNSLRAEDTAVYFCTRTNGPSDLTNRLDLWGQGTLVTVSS VL: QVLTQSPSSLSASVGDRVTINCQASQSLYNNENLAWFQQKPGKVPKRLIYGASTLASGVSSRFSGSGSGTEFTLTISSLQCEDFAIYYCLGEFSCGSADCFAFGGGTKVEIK shows ADCC cytotoxic activity (51Cr release) on NCI-N87 equal to ≥ 45%

For humanized antibody #4 (antibody, V domains shown) VH: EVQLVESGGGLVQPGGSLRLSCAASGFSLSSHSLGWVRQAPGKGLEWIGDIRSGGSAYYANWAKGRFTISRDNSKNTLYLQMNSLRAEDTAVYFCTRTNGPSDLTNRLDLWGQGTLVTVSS VL: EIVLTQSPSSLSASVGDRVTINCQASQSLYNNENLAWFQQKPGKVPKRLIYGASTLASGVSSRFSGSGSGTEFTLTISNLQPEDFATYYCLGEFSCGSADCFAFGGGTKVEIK the binder record lists ADCC cytotoxic activity (51Cr release) on NCI-N87 as ≥ 38%

Reference source for all entries: patent US20160297889A1
